These data points were gathered from paper PMC12533025.

- TESTED TARGET: MOP (Mus musculus, UniProt P42866)
- Sequence (P42866 whole entry): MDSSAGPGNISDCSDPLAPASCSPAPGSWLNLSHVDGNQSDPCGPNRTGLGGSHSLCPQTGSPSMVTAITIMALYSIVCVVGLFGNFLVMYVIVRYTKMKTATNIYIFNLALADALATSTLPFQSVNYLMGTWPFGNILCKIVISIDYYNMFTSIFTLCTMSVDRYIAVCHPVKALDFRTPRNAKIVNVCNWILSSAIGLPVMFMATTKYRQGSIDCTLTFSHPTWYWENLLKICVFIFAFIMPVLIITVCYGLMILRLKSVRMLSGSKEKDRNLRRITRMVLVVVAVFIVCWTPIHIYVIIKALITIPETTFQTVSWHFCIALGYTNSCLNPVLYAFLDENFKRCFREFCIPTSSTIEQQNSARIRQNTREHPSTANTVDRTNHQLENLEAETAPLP
- PROTOCOL TEXT: [35S]-GTPγS stimulated binding functional assay, MOP
OUTCOME MEASURE: pEC50
Expect pEC50 as a plain number equal to -log10 of the molar concentration.

Just so you know, measured pEC50 for Cc1c(CC(=O)N[C@@H](CN2CCc3ccccc3C2)C(C)C)cccc1[N+](=O)[O-] [(R)-10m] came out at 7.02

* * *

- TESTED TARGET: KOP (Mus musculus)
- Sequence (P33534 whole entry): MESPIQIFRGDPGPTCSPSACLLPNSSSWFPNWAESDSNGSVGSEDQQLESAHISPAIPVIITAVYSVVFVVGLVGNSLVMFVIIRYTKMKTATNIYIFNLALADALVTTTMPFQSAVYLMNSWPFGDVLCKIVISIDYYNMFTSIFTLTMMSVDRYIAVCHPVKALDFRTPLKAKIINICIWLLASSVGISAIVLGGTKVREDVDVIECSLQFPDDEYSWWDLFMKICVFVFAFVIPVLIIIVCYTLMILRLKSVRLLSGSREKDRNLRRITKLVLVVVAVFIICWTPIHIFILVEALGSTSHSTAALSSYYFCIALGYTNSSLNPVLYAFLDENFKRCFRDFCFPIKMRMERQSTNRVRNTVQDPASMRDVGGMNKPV
- PROTOCOL TEXT: [35S]-GTPγS stimulated binding functional assay, KOP
OUTCOME MEASURE: EC50
Write the numeric value and follow it with the unit.

EC50 in this record for Cc1c(CC(=O)N[C@@H](CN2CCc3ccccc3C2)C(C)C)cccc1[N+](=O)[O-] [(R)-10m] : 666 nM
